target: T1, cynomolgus 4-1BB extracellular domain, His tag (cynomolgus, UniProt A9YYE7 24-186); assay: SPR, Biacore T200; antibody captured on Protein G chip, cynomolgus 4-1BB ECD.His as analyte
T1 construct: extracellular domain; also called cynoPro1.ECD.His; ACRO-41B-C52H4; not shown: His tag
T1 sequence (A9YYE7 entry or part of it): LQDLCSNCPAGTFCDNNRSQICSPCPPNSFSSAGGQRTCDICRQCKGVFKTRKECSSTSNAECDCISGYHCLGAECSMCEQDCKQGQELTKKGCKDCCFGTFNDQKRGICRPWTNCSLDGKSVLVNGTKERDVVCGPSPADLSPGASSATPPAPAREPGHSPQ
readoutKind: koff

| binder | readoutKind | assayValue |
| --- | --- | --- |
| 2.19.8-u1-3-hIgG4L (antibody, V domains shown) VH: QVQLVESGGGLVKPGGSLRLSCAASGFTFSDYFMSWIRQAPGKGLEWVSYISNAGSSKYYADSVKGRFTISRDNAKNSLYLQMNSLRAEDTAVYYCVRDPYSGSYSGWFDPWGQGTLVTVSS VL: SYDLTQPPSVSVSPGQTASITCSGDDLGDKYTSWYQQKPGQSPVLVVYQDHKRPSGIPERFSGSNSGNTATLTISGTQAMDEADYYCQAWDKGIVVFGGGTKLTVL | koff | 2.93e-05 s⁻¹ |
| 2.19.8-u1-3-hIgG1L (antibody, V domains shown, Fully human antibody) VH: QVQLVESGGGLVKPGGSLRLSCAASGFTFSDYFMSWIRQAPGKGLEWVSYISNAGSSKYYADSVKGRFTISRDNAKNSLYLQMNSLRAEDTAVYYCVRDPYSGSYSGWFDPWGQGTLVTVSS VL: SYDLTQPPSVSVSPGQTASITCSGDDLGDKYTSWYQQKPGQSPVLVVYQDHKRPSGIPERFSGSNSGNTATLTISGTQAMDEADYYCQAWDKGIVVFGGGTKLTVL | koff | 2.96e-05 s⁻¹ |
| 2.27.16-u1-1-hIgG1L (antibody, V domains shown, Fully human antibody) VH: QEQLQESGPGLVKPSQTLSLTCTVSGGSINSQGYYWSWIRQHPGKGLEWIGYIYDSGSAYYNPSLERRVAISLDTSKNQFSLNLNSVTVADTAVYYCARIVAAGRIDPWGQGTLVTVSS VL: SYVLTQPPSVSVAPGQTARMTCGGDNIGIKIVHWYQQKAGQAPVLVVYDDNDRPSGIPDRFSGSNSGNTATLTISRVAAGDEADYYCQVWDRRSDHVVFGGGTKLTVL | koff | 3.07e-05 s⁻¹ |
| 2.27.16-u1-1-hIgG4L (antibody, V domains shown) VH: QEQLQESGPGLVKPSQTLSLTCTVSGGSINSQGYYWSWIRQHPGKGLEWIGYIYDSGSAYYNPSLERRVAISLDTSKNQFSLNLNSVTVADTAVYYCARIVAAGRIDPWGQGTLVTVSS VL: SYVLTQPPSVSVAPGQTARMTCGGDNIGIKIVHWYQQKAGQAPVLVVYDDNDRPSGIPDRFSGSNSGNTATLTISRVAAGDEADYYCQVWDRRSDHVVFGGGTKLTVL | koff | 0.000101 s⁻¹ |
